- test.target: T1, BALBc mouse SIRP-α (mouse (BALB/c strain))
- T1 chain: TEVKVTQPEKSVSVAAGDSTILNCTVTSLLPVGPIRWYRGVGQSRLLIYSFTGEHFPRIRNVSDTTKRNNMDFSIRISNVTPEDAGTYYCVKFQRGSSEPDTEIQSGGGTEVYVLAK
- assay.text: SPR
property.measured: log10(koff) (log10 of the value in s⁻¹)
The common logarithm of koff in s⁻¹ is what is listed.

// query Need log10(koff) of Hum3/AB25_HC_wt (antibody, V domains shown) VH: DVQLVESGGGVVRPGESLRLSCEASGFTFSSNAMSWVRQAPGKGLEWVAGISSGSDTYYGDSVKGRLTISRDNSKNILYLQMNSLTAEDTAVYYCARETWNHLFDYWGLGTLVTVSS VL: SYELTQPPSVSVSPGQTARITCSGGDYYSTYYAWYQQKPGQAPVTVIHSDDKRPSDIPERFSGSSSGTTVTLTISGVQAEDEADYYCGGYDGRTYINTFGGGTKLTVL , thanks.
// result -3.64
